Source of measurements: the Human Domainome abundance scans (Beltran et al. 2025)

B1: Tesmin, residues 368 to 403; numbered along this chain, Q9Y4I5 (parent)
chain: KGCNCRRSGCLKNYCECYEAQIMCSSICKCIGCKNY

variants of: B1; assay: abundance fitness (aPCA) (normalised: wild type 0, dead -1); higher = more abundant; growth selection in yeast, the domain comes from the species named; details: Homo sapiens
measuredAttribute: abundance fitness

Requested field: abundance fitness. Item: E16K
-0.502

Requested field: abundance fitness. Item: R7P
-0.103

Requested field: abundance fitness. Item: S25V
-0.509
